- Assay protocol: yeast display, Sf9 membrane polyspecificity reagent, FACS + sequencing; frameworks hold sequencing errors

Residue codes: QDQLVESGGGLVQAGGSLRLSCAASGIILGGYVMGWYRQAPGKERELVAALSYSGGRTDYADSVKGRFTISRDKAKNTVYLQMNILNPEDTAVYYCATEYWRYHGITKGYTRYDYWGQGTQVTVSS
polyreactivity (PSR sort gate): high polyreactivity
//
Residue codes: QVQLVESGGGLVQAGGILRLSCAASGSIFRPYAMGWYRQAPGKERELVAAIRWSTRNTYYADSVKGRFTISRDNAKNTVYLQMNSLKPEDTAVYYCAAAYWPVVWFYYWGQGTQVTVSS
polyreactivity (PSR sort gate): low polyreactivity
//
Residue codes: QVQLVESGGGLVQAGGSLRLSCAASGRTLARNAMGWYRQAPGKEREFVASINGRTTRTYYADSVKGRFTISRDNAKNTVYLQMNSLKPEDTAVYYCAADPPGYVYGKRYYWGQGTQVTVSS
polyreactivity (PSR sort gate): high polyreactivity
//
Residue codes: QVQLVESGGGLVQAGGSLRLSCAASGRIFRYYAMGWYRPATGKERELVAGITRGGTTNYSDSVKGRFTISRDNAKNTVYLQMNSLKPEDTAVYYCAADTRRGIIGYDYWGQGTQVTVSS
polyreactivity (PSR sort gate): high polyreactivity
//
Residue codes: QVQLVESGGGLVQAGGSLRLSCAASGNTFVSNARGWYRQAPGKERELVAAIDSGGSTNYADSVKGRFTISRDNAKNTVYLQMNSLKPEDTAVYYCNRTSVYYYYWGQGTQVTVSS
polyreactivity (PSR sort gate): low polyreactivity

###

- Assay protocol: yeast display, Sf9 membrane polyspecificity reagent, FACS + sequencing; frameworks hold sequencing errors

Residue codes: QVQLVESGGGLVQAGGSLRLSCAATGFTFRFYAIGWYRQAPGKERELVAAISSRGTTTYYADSVKGRFTISRDNAKNTVYLQMNSLKPEDTAVYYCNKEYTTYGYDLEYDYWGQGTQVTVSS
polyreactivity (PSR sort gate): low polyreactivity
--
Residue codes: QVQLVESGGGLVQAGGSLRLSCAASGFTFTAYAMGWYRQAPGKERELVAAISNRGGRTYYADSVKGRFTFSRDNAKNTVYLQMNSLKPEDTAVYYCAAGYSYAQYSYPFLSFAFGYWGQGTQVTVSS
polyreactivity (PSR sort gate): high polyreactivity
--
Residue codes: QVQLVESGGGLVQAGGSLRLSCAASGRIFFPYAMGWYRQAPGKERELVAAISTSSGRTYYADSVKGRFTISRDNAKNTVYLQMNSLKPEDTAVYYCNTRPGSYSYSYRYYYWGQGTQVTVSS
polyreactivity (PSR sort gate): high polyreactivity
--
Residue codes: QVQLVESGGGLVQAGGSLRLSCAASGSTFSWYTMGWYRQAPGKERELVAAISWSGGRTYYADSVKGRFTISRDNAKNTVYLQMNSLKPEDTAVYYCAAYDYWYSLGDYQFYYSGQGTQVTVSS
polyreactivity (PSR sort gate): low polyreactivity
--
Residue codes: QVQLGESGGGLVQSGGSLRLSCAASGIIFRNYAMGWYRPAPGKERELVATITGDGGSTYYADSVKGRFTISRDNAKNTVYFQMNSLKPEDTAVYYCAAEYHHYYYYWGEYWGQGTQVTVSS
polyreactivity (PSR sort gate): low polyreactivity
--
Residue codes: QVQLVESGGVLVQAGGSLRLSCAASGRTFWYNAMGWYRQAPGKEWELVAAISSTGGRTYYADSVKGRFTISRDNAKTTVYLQMNSLKPEDTAVYYCAARQLSSHYDYWGQGTQVTVSS
polyreactivity (PSR sort gate): low polyreactivity
--
Residue codes: QVQLVESGGGLVQAGGSLRLSCAASGITFIYYAMGWYRQAPGKERELVAAITWRGGSTYYADSVKGRFTISRDNAKYTVYLQMNSLKPEDTAVYYCNKGGISGRDYWGQGTQVTVSS
polyreactivity (PSR sort gate): high polyreactivity
--
Residue codes: QVQLVESGGGLVQAGGSLRLSCAASGFTFGRNAMGWYRQAPGKERELVARITTGGSTNYADSVKGRFTISRDHAKNTVDLQMNRLKPEDTAVYDCAATYRSLALFWTYGYWGQGTQVTVSS
polyreactivity (PSR sort gate): low polyreactivity
--
Residue codes: QVQLVESGGGLLQAGGSLRLSCAASGSTFWFYAMGWYRQAPGKERELVDVISNSGSTYYADSEKGRFTISRDNAKNTVYLQMNSLKPEDTAVYNCAADGFYYPNWGRFSYYYWGQGTLVTVSS
polyreactivity (PSR sort gate): low polyreactivity
--
Residue codes: QVQLVESGGGLVQAGGSLRLSCAASGSIFVRYAKGWYRQAPGKERELVAAIDIGGGTYYADSVKGRFTISRDNAKNTVYLQMNSLKPEDTAVYYCAADGFTEYIYLPYDYWGQGTQVTVSS
polyreactivity (PSR sort gate): high polyreactivity
--
Residue codes: QVQLVESGGGLVQAGGSLRLSCAASGFIFYKYAMGWYRQAPGKERELVAAITARGGSTYYADSVKGRFTISRDNAKNTVYLQMNSLKPEDTAVYYCAADTYFSGAGGQAYQYDYWGQGTQVTVSS
polyreactivity (PSR sort gate): high polyreactivity

###

- Assay protocol: yeast display, Sf9 membrane polyspecificity reagent, FACS + sequencing; frameworks hold sequencing errors

Residue codes: QDQLVESCGGLVQAGGSLRLSCASSGIIFVNYAMGWYRQAPGKERELVAAITTSGGSTYYADSVKGRFTISRDNAKNTVYLQMNCLKPEDTAVYYCAKISSLFKHVVRYDYWGQGTQVTVSS
polyreactivity (PSR sort gate): low polyreactivity

Residue codes: QVQLVESGGGLVKAGGSLRISCAASGSIFTPYTMGWYRQAPGKERELVAAISSGDSTYYADSVKGRFTISRDNAKKTVYLQMNSLKPEDTAVYYCAADYRYDYDYWGQGTQVTVSS
polyreactivity (PSR sort gate): low polyreactivity

Residue codes: QVQLVESGGGLVQAGGSLRLSCAASGSIFGAYAMGWYRQAPGKESELVAVIRWGGGSTYADSVKGRFTISRDNAKNTVYLQMNSLKPEDTAVYYCNRDKSWADLYSHAYDYWGQGTQVTVSS
polyreactivity (PSR sort gate): low polyreactivity

###

- Assay protocol: yeast display, Sf9 membrane polyspecificity reagent, FACS + sequencing; frameworks hold sequencing errors

Residue codes: QVQIVESGGGLVQAGGSLRLSCAASGLIFYAYAMGWYRQAPGKERELVAAMSYSGGSTYYADSVKGRFTISRDLAKNTVYLQMNSLKPEDTAVYYCAADDGISTYEYWGQGTQVTVSS
polyreactivity (PSR sort gate): high polyreactivity
--
Residue codes: QVQLVESGGGLVQAGGSLRLSCAASGIIFRYYAMGWYRQAPGKEREFVAAISSSGVRTYYADSVKGRFTISRDNAKNTVYLQMNSLKPEDTAVYYCAAASRANSYRYNYWGQGTQVTVSS
polyreactivity (PSR sort gate): high polyreactivity
--
Residue codes: QVQIVESGGGLVQAGGSLRLSCAASGSTFTFYAMGSYRQAPGKERELVASITQSTGSTHYADSVKGRFTISRDNEKNTVFLQMNSLNPEDTAVYYCKAQKIVYYLVTLFPYYYWGQGSQVTVSS
polyreactivity (PSR sort gate): low polyreactivity
--
Residue codes: QVQLVESGGGLVQAGGSLRLSCAASGRTFGGNVMGWYRQAPGKERELVAAITWSGGRTYYADSVKGRFTISRDNAKNTVYLQMNSLKPEDTAVYYCNARNGFTVKKFYYWGQGTQVTVSS
polyreactivity (PSR sort gate): high polyreactivity
--
Residue codes: QVQLVESGGGLVQAGGSLRLSCAASGYSLYANAKGWSRQAPGKERELVASITFGDDSTYYADSVKGRFTISRDNAKNTVDLQMNSLKPEDTAVYYCNADHKVEVEDDYCGQGTQVTVSS
polyreactivity (PSR sort gate): low polyreactivity
--
Residue codes: QVQLVESGGGLVQAGGSLRLSCAASGINFKGNAMGWYRQAPGKERELVATISSGGTTNYADSVKGRFTISRDNAKNTVYLQMNSLKPEDTAVYYCAKRGYYRSRRYDYWGQGTQVTVSS
polyreactivity (PSR sort gate): high polyreactivity
--
Residue codes: QVQLVESGGGLVQAGGSLRLSCAASGSTFSIYAMGWYRQAPGKERELVADITANGGSTYYADSVKGRFTISRDNAKNTVYLPMNSLKPEDTAVYYCAADAKSFDAVHYDYWGQGTHVTVSS
polyreactivity (PSR sort gate): low polyreactivity
--
Residue codes: QVQLVESGGGLDQAGGSLRLSCAASGLTSLGNAMGWYRQAPGKERELVAAITRTGTSTYYADSVKGRFTISRDNAKNTVYLQMNSLKPEDTAVYYCNADGQSQYRYGSQYRYDYWGQGTQVTVSS
polyreactivity (PSR sort gate): low polyreactivity
--
Residue codes: QVQLVESGGGLVQAGGSLRLSCAPSGFTFRRNAMGWYRQAPGKERELVAVITSSARTNYADSVKGRFTISRDNAKKTVYLEMNSLKPEDTAVYYCAARYHYGVWRERHGYWGQGTKVTVSS
polyreactivity (PSR sort gate): high polyreactivity
--
Residue codes: QVQLVESGGGLVQAGGSLRLSCAASGFIFYYAMGWYRPAPGKERELVAAISSGSSTYADSVKGRFTISRDNAKNTVYLQMNSLKPEDTAVYYCATRYSSWYSNRDYDYWGQGTQVTVSS
polyreactivity (PSR sort gate): low polyreactivity
--
Residue codes: QVQLVESGGGLVQAGGSLRLSCAASGGIFNVNAMGWYRQAPWKERELVAAIDWSSSSTDYADSVKGRFTISRDNAKNTVYLQMNSLKPEDTAVYYCAKLAGYSPTFEYWGQGTQVTVSS
polyreactivity (PSR sort gate): low polyreactivity
--
Residue codes: QVQLVESGGGLVQAGGSLRLSCAASGLIFLPYAMGWYRQAPGKERELVAAIRWSDDSTYYADSVKGRFTILRDNAKNTVYLQMNSLKPEDTAVYYCNAYVYRPSYIYNYYYEYDYWGQGTQVTVSS
polyreactivity (PSR sort gate): high polyreactivity
--
Residue codes: QVQLVESGGGLVQAGGSLRLSCAASGNIFYLNTMGWYRQAPGKERELVASITRSTGSTYYADSVKGRFTISRDNAKNTVYLQMNSLKPEDTAVYYCAADWSLNKTPRLKGYTFRDDYWGQGTQVTVTS
polyreactivity (PSR sort gate): low polyreactivity
--
Residue codes: QVQLVESGGGVVQAGGSLRLSCAASGRIIPYYAMGWYRPAPGTERELVAAISWTDGTTFYADSVKGRFTISRDNAKNTVYLQMNSLKPEDTAVYYCAASVYQDKGYDYWGQGTQVTVSS
polyreactivity (PSR sort gate): low polyreactivity
--
Residue codes: QVQLVESGGGLVQAGGSLRLSCAASGRIFVPNAMGWYRQAPGKERELVAAITRSGSTYYADSVKGRFTISRDNAKNTVYLQMNSLKPEDTAVYYCNAASRRFPGKVWDYHYWGQGTQVTVSS
polyreactivity (PSR sort gate): low polyreactivity
--
Residue codes: QVQLVESGGGLVQAGGSLRLSCAASGGTFRYYAMAWYRQAPGKERELVARIRYNGGSTYYADSVKGRFTISRDNAQYTVYLQMNSLKPEDTAVYYCAGRRTGGMGYWGQGTQVTVSS
polyreactivity (PSR sort gate): high polyreactivity
--
Residue codes: QVQLVESGGGLVQAGGSLRLSCAASGRTFRDYTMGWYRQAPGNERELVAAITSTGDTNYADSVKGRFTISRDNAKNTVYLQMNSLKPEDTALNYCATQTGEEYQAPLIYDYWGQGTQVTVSS
polyreactivity (PSR sort gate): low polyreactivity
--
Residue codes: QVQLVESGGGLVQAGGSLRLSCAASGFIFARYAMGWYRQAPGKERELVAAISSGGRTYFADSVKGRFTISRDNAKNTVYLQMNSLKPEDTAVYYCAKRPTNGYGTFDYWGQGTQVTVSS
polyreactivity (PSR sort gate): high polyreactivity
--
Residue codes: QVQLVESGGGLVQAGGSLRLSCAASGSTFVNYVMGWYRPAPGKERELVAAISRRGTSTRYADSVKGRFTISRDNAKNTVYLQMNSLKPEDTAVYYCAATRYVGVTGYGYWGQGTQVTVSS
polyreactivity (PSR sort gate): high polyreactivity
--
Residue codes: QVQLVESGGGLVHAGGSLRIICAASGRIFYIYAMGWYRQAPGKERELVAAITKSGGSTTHYADSVKGRFTISRDNAKNTVYLQMNSLKPEDTEVYYCAVDARYSRSKYGYWGHGTQVTVSS
polyreactivity (PSR sort gate): high polyreactivity
--
Residue codes: QVQLQESRGGLVQAGGSLRLSCAATGTIFTDRIMGWYLQAPGKERELVAGISPGTSTNYADSVKGRFTISRDNEKNTVYLQMNSLKPEDTAVYYCAADWSTGNTLPYWGQGSQVTVSS
polyreactivity (PSR sort gate): high polyreactivity

Data origin: the nanobody polyreactivity screen of Harvey et al. (2022)
